measured target: human CXCR3 (Homo sapiens, UniProt P49682)
Construct: expressed in transfected cells; host or cells: CHO cells (membrane preparation)
Sequence (P49682 1-368): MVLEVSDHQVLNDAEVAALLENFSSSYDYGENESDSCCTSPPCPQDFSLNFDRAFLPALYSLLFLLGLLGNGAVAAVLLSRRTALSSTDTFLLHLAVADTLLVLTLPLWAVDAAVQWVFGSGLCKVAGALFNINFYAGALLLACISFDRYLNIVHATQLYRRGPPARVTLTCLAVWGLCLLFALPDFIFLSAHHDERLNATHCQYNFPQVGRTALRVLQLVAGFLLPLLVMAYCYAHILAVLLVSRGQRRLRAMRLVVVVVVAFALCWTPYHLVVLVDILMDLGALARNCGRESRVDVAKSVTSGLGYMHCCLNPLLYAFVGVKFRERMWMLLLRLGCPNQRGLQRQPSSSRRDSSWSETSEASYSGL
assay details: [35S]GTPγS exchange assay, CXCR3 receptor inhibition (hI-TAC-induced GTPγS-binding)
Assay type: biochemical
test settings: -log IC50 (molar) inhibiting 50% of specific I-TAC-induced GTPγS-binding; membranes of human CXCR3-transfected CHO cells; read-out: pIC50 (converted)
measured parameter: IC50 (nM)

Known IC50 results, listed for orientation:
# compound, unit of measure, IC50
data = [
    ("CC(c1ccc(Br)cc1)N1CCC(C2(c3ccc(F)cc3)CCC(=O)NC2)CC1 (stereo not shown)", "nM", 631),
    ("O=C1CCC(c2ccccc2)(C2CCN(Cc3ccc(Br)cc3)CC2)C(=O)N1 (single isomer, unassigned)", "nM", 631),
    ("O=C1CCC(c2ccccn2)(C2CCN(Cc3ccc(Cl)c(F)c3)CC2)C(=O)N1 (stereo not shown)", "nM", 794),
    ("O=C1CCC(c2ccccc2)(C2CCN(Cc3ccc(Cl)cc3)CC2)C(=O)N1 (stereo not shown) [Compound 20]", "nM", 794),
]

A: O=C1CCC(c2ccc(F)cc2F)(C2CCN(Cc3ccc(Cl)cc3Cl)CC2)C(=O)N1 (stereo not shown)
B: O=C1CCC(c2ccc(C(=O)O)cc2)(C2CCN(Cc3ccc(Cl)cc3)CC2)C(=O)N1 (stereo not shown)
**Q:** Endpoint returns whichever of A and B has the numerically higher IC50. Give the label of your selection.
**A:** B
(B: 5010 nM, A: 631 nM)

---

measured target: human CXCR3 (Homo sapiens)
Construct: expressed in transfected cells; host or cells: CHO cells (membrane preparation)
assay details: [35S]GTPγS exchange assay, CXCR3 receptor inhibition (hI-TAC-induced GTPγS-binding)
Type: biochemical
test settings: -log IC50 (molar) inhibiting 50% of specific I-TAC-induced GTPγS-binding; membranes of human CXCR3-transfected CHO cells; read-out: pIC50 (converted)
measured parameter: IC50 (nM)

Some solved cases for reference:
# compound, unit of measure, IC50
rows = [
    ("O=C1CCC(c2ccc(F)cc2F)(C2CCN(Cc3ccc(Cl)c(F)c3)CC2)C(=O)N1 (racemic)", "nM", 251),
    ("O=C1CCC(c2ccccc2)(C2CCN(Cc3ccc(Cl)s3)CC2)C(=O)N1 (centres unmarked) [Compound 154]", "nM", 2510),
    ("O=C1CCC(c2ccc(F)cc2)(C2CCN(Cc3ccc(Cl)s3)CC2)C(=O)N1 (centres unmarked)", "nM", 1260),
    ("O=C1CCC(c2cccnc2)(C2CCN(Cc3ccc(Cl)cc3)CC2)C(=O)N1 (centres unmarked)", "nM", 794),
]

A: O=C1CCC(c2ccccc2)(C2CCN(Cc3ccc(Cl)cc3)CC2)C(=O)N1 (centres unmarked) [Compound 19]
B: COC(=O)CCN1C(=O)CCC(c2ccccc2)(C2CCN(Cc3ccc(C(F)(F)F)cc3)CC2)C1=O (centres unmarked)
**Q:** Pick one: A or B . Which has the bigger IC50 number? Identify your selection by its label.
**A:** A
(A: 1260 nM, B: 631 nM)

P: O=C1CCC(c2cccc(C(=O)O)c2)(C2CCN(Cc3ccc(Br)cc3F)CC2)C(=O)N1 (centres unmarked)
Q: O=C1CCC(c2ccc(F)cc2)(C2CCN(Cc3ccc(OC(F)F)cc3)CC2)C(=O)N1 (centres unmarked)
**Q:** I need your help: which of the pair P , Q has higher IC50? Kindly state the label of the option you pick.
**A:** Q

---

measured target: human CXCR3 (Homo sapiens, UniProt P49682)
Construct: expressed in transfected cells; host or cells: CHO cells (membrane preparation)
assay details: [35S]GTPγS exchange assay, CXCR3 receptor inhibition (hI-TAC-induced GTPγS-binding)
Type: biochemical
test settings: -log IC50 (molar) inhibiting 50% of specific I-TAC-induced GTPγS-binding; membranes of human CXCR3-transfected CHO cells; read-out: pIC50 (converted)
measured parameter: IC50 (nM)

A: O=C1CCC(c2ccc(F)cc2F)(C2CCN(Cc3cc4cc(Br)ccc4o3)CC2)C(=O)N1 (stereo not shown)
B: O=C1CCC(c2ccncc2)(C2CCN(Cc3ccc(-c4ccccc4)cc3)CC2)C(=O)N1 (stereo not shown)
C: O=C1CCC(c2ccc(F)cc2)(C2CCN(Cc3ccc(Cl)c(Cl)c3)CC2)C(=O)N1 (stereo not shown)
D: COc1cc(CN2CCC(C3(c4ccccc4)CCC(=O)NC3=O)CC2)ccc1F (stereo not shown)
**Q:** Ranking request: IC50, max to min, items above. # the answer lists labels in the order requested
**A:** B, D, A, C

---

Structures can show the parent of a compound that is named as a salt.
measured parameter: melting point

Examples with answers:
# compound, melting point
measured = [
    ("O=C1CCC(c2ccccc2)(C2CCN(Cc3ccc(Cl)c([N+](=O)[O-])c3)CC2)C(=O)N1 (centres unmarked) (as salt: HCl) [Compound 12]", "244.4 to 248.3 °C"),
    ("Cl.O=C1CCC(c2ccc(F)cc2F)(C2CCN(Cc3ccc(Br)cc3)CC2)C(=O)N1 (single isomer, unassigned) [Compound 195]", "273.9 to 278.3 °C"),
    ("Cl.Nc1cc(CN2CCC(C3(c4ccccc4)CCC(=O)NC3=O)CC2)ccc1Cl (centres unmarked)", "287.8 °C"),
    ("CN1C(=O)CCC(c2ccccc2)(C2CCN(Cc3ccc(Br)cc3)CC2)C1=O (centres unmarked) [Compound 125]", "298.1 to 303.1 °C"),
]

Field melting point (entry Cl.O=C1CCC(c2ccc(F)cc2F)(C2CCN(Cc3ccc(Cl)c(F)c3)CC2)C(=O)N1 (single isomer, unassigned) [Compound 204] ) reads 282 to 283.8 °C

O=C1CCC(c2ccccc2)(C2CCN(Cc3ccc(Cl)c(F)c3)CC2)C(=O)N1 (single isomer, unassigned) [Compound 40] has a reported melting point of 192 to 194.3 °C

Memo: O=C1CCC(c2ccccc2)(C2CCN(Cc3ccc(Cl)c(F)c3)CC2)C(=O)N1 (single isomer, unassigned) [Compound 41] , reported melting point: 192.3 to 196.3 °C

Noted for Cl.O=C1CCC(c2ccc(F)cc2F)(C2CCN(Cc3ccc(Cl)c(F)c3)CC2)C(=O)N1 (single isomer, unassigned) [Compound 203] : its melting point reads 282 to 285.9 °C

---

measured target: human CXCR3 (Homo sapiens, UniProt P49682)
Construct: expressed in transfected cells; host or cells: CHO cells (membrane preparation)
assay details: [35S]GTPγS exchange assay, CXCR3 receptor inhibition (hI-TAC-induced GTPγS-binding)
Assay type: biochemical
test settings: -log IC50 (molar) inhibiting 50% of specific I-TAC-induced GTPγS-binding; membranes of human CXCR3-transfected CHO cells; read-out: pIC50 (converted)
measured parameter: IC50 (µM)

Below, 4 molecules whose answers are already recorded.
# molecule, measurement
records = [
    ("CC(c1ccc(Br)cc1)N1CCC(C2(c3ccccc3)CCC(=O)NC2=O)CC1 (centres unmarked) [Compound 1]", 0.398),
    ("O=C1CCC(c2ccccc2)(C2CCN(Cc3ccc4ccccc4c3)CC2)C(=O)N1 (centres unmarked)", 3.98),
    ("O=C1CCC(c2ccccc2)(C2CCN(Cc3ccc(OC(F)F)cc3)CC2)C(=O)N1 (centres unmarked)", 1),
    ("O=C1CCC(c2cccnc2)(C2CCN(Cc3cc4cc(Br)ccc4o3)CC2)C(=O)N1 (centres unmarked)", 1.58),
]

A: O=C1CCC(c2ccccc2)(C2CCN(Cc3ccc(Cl)cc3Cl)CC2)C(=O)N1 (centres unmarked)
B: O=C1CCC(c2cccc(Cl)c2)(C2CCN(Cc3ccc(OC(F)(F)F)cc3)CC2)C(=O)N1 (centres unmarked)
C: O=C1CCC(c2ccccc2)(C2CCN(Cc3ccc(F)cc3)CC2)C(=O)N1 (centres unmarked) [Compound 45]
**Q:** Number of molecules to sort: 3. Sort criterion: IC50, ascending. Returns: the labels listed in the requested order.
**A:** A, C, B
(A: 2.51 µM, C: 3.98 µM, B: 7.94 µM)
